Where do the numbers come from? From PubChem BioAssay (NCI).

Experiment Notes: NCI Yeast Anticancer Drug Screen. Data for the mlh1 rad18 strain (AID 175)
Assay Conditions: S. cerevisiae mlh1 rad18 strain growth inhibition; at 50.0 µM
The panel holds about 79,000 compounds, 15% with a hit somewhere; the sample as a whole holds those more often. Activity calls are given as the source filed them. No stated cut-off is given here; in the data, active means growth inhibition above about 70%; inactive means the rest.
Classes used: true (1) = active, false (0) = inactive

compound=COc1ccc(CC(=O)c2ccc(O)cc2O)cc1 category="false (0)"
compound=Cc1c(-c2ccccc2)ccnc1/C=N/NC(N)=S category="true (1)"
compound=NS(=O)(=O)c1ccc(Nc2c3ccccc3nc3c(C(=O)N4CCN(CCO)CC4)cccc23)cc1 category="true (1)"
compound=O=C(C(c1ccccc1)c1ccccc1)C(c1ccccc1)c1ccccc1 category="false (0)"
compound=O=C(NN1CCOC1=O)OCCCl category="true (1)"
compound="CC(=O)OC1CCC2(C)C(CCC3C4CCC(OC(C)=O)C4(C)CCC32)O1 (stereo not given)" category="false (0)"
compound=Oc1ccc(/C=N/NC(=S)NN2CCOCC2)nc1 category="true (1)"
compound=COc1ccc(/C=C/C(=O)CCN2CCN(CCC(=O)/C=C/c3ccc(OC)cc3)CC2)cc1 category="true (1)"
compound=Clc1ccc(CNCCCNCc2ccc(Cl)cc2)cc1 category="false (0)"
compound=O=C(O)c1ccc(Nc2cnc3ccc(C(F)(F)F)cc3n2)cc1 category="false (0)"
compound=CSc1ccc(N2C(=O)CSC2=S)cc1Cl category="true (1)"
compound="NC(CSCc1ccccc1)C(=O)O (stereo not given)" category="false (0)"
compound=O=C1/C(=C/c2ccc(Cl)cc2)Sc2scc(-c3cccc([N+](=O)[O-])c3)[n+]21 category="true (1)"
compound="CCOC(=O)[C@H]1Nc2ccc([N+](=O)[O-])cc2C2c3ccccc3CC21 (stereo not given in full)" category="true (1)"
compound=O=C(/C(=C\c1ccc(Cl)c(Cl)c1)c1ccccc1)c1ccc(O)cc1 category="true (1)"
compound=COc1ccc(Cc2ccc(O)cc2)cc1 category="false (0)"
compound=O=C1OC(c2ccc(O)cc2)(c2ccc(O)cc2)c2cccc3cccc1c23 category="true (1)"
compound=Nc1cc(F)c2c(c1)Cc1ccccc1-2 category="false (0)"
compound=O=S(=O)(O)c1ccc2cc(N=Nc3c(O)ccc4ccccc34)ccc2c1 category="false (0)"
compound=O=C1c2cc3c(cc2CC12Cc1ccccc1C2)CCC3 category="false (0)"
compound=O=C(c1ccco1)N(C(=S)N1CCN(c2ccccn2)CC1)C1CCCCC1 category="true (1)"
compound=C=CCN(CC=C)C(CC(=O)C(C)(C)C)=NCC category="false (0)"
compound=CCOc1ccc(N/N=C(\CCC(=O)O)C(=O)O)cc1 category="true (1)"
compound=COc1ccc(NC(=O)C(=O)NO)c(OC)c1 category="true (1)"
compound="COC1OCC(O)C(O)C1O (stereo not given)" category="false (0)"

###

Experiment Notes: NCI Yeast Anticancer Drug Screen. Data for the sgs1 mgt1 strain (AID 161);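 further: 0% = growth of cultures given vehicle only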
Assay Conditions: S. cerevisiae sgs1 mgt1 strain, at 50.0 µM, hits give high values
The panel holds about 79,000 compounds, 15% with a hit somewhere; the sample as a whole holds those more often.
Readout Kind: growth inhibition (%)

molecule=O=[N+]([O-])c1c(Br)cc(Br)c2c1Nc1c(ccc(Cl)c1Cl)S2 readout_kind="growth inhibition" test_value=96.4
molecule=Nc1cc(F)c2c(c1)Cc1ccccc1-2 readout_kind="growth inhibition" test_value=82.7
molecule=CC(=O)Nc1ccc(S(=O)(=O)N/N=C/c2ccc(C)cc2)cc1 readout_kind="growth inhibition" test_value=7.45
molecule=O=Cc1cc([N+](=O)[O-])ccc1O.[Eu] readout_kind="growth inhibition" test_value=91.2
molecule="COc1ccc(/C=C2\\CCCC(CN(C)C)C2=O)cc1 (stereo unspecified)" readout_kind="growth inhibition" test_value=86.2
molecule="CCCCCCCCCCNC1CC(OC2CC(O)(C(O)CO)Cc3c(O)c4c(c(O)c32)C(=O)c2c(OC)cccc2C4=O)OC(C)C1O (stereo unspecified)" readout_kind="growth inhibition" test_value=90.2
molecule="CCC[CH2][Sn]1([CH2]CCC)[O]N=C(c2ccccc2)C(c2ccccc2)[O]1 (stereo unspecified)" readout_kind="growth inhibition" test_value=89.4
molecule=CCO/C=C1\SC(=S)N(c2cccc(O)c2)C1=O readout_kind="growth inhibition" test_value=40.4
molecule=O=C1CSC(=S)N1c1ccc(Cl)c(C(F)(F)F)c1 readout_kind="growth inhibition" test_value=98.9
molecule=CC(C)OC(=S)SSC(=S)OC(C)C readout_kind="growth inhibition" test_value=99.3
molecule=CCN(CCO)CCNc1ccc(C)c2sc3ccccc3c(=O)c12 readout_kind="growth inhibition" test_value=91.8

###

Experiment Notes: NCI Yeast Anticancer Drug Screen. Data for the mlh1 rad18 strain (AID 175)
Assay Conditions: S. cerevisiae mlh1 rad18 strain growth inhibition; at 5.0 µM (retest, dose inferred, filed as 0.5); hits give high values
Compounds without any hit were thinned out: in the full panel of roughly 79,000, 15% have a hit.
Please note: 1.0 applies when growth inhibition is 10% or greater, and 0.0 applies otherwise.

compound=O=C(Nc1cc(-c2ccccc2)[nH]n1)c1ccccc1F category=1.0
compound=O=[N+]([O-])c1ccc(N/N=C/CC(O)(C(F)(F)F)C(F)(F)F)c([N+](=O)[O-])c1 category=0.0
compound=Cc1c2cc[n+](C)cc2c(C)c2c1[nH]c1ccccc12 category=1.0
compound=CC(=O)[O-].[O-]c1c(Cl)cc(Cl)cc1/C=N/Nc1ccccn1.[Zn+2] category=0.0
compound=c1ccc2c(c1)CNc1ccccc1-2 category=0.0
compound="NC(C/[N+]([O-])=N/O)C(=O)O (stereo not given)" category=1.0
compound=CCCCCCCCOC(=O)c1cc(O)c(O)c(O)c1 category=1.0
compound=Clc1nc(Cl)c(Cl)c(Cl)n1 category=1.0
compound="Cc1c(Cl)cccc1NC(=O)CC1Sc2ccccc2NC1=O (stereo not given)" category=0.0
compound=CC(C)(C)CC(C)(C)c1ccc(OCCO)cc1 category=0.0
compound="O=NC1C(Br)C2CC1C1C(Cl)C(Cl)CC21 (stereo not given)" category=1.0
compound="CS(=O)(=O)OC1CC(n2ccc(=O)[nH]c2=O)OC1COC(c1ccccc1)(c1ccccc1)c1ccccc1 (stereo not given)" category=0.0
compound=O=C1/C(=C/c2ccc(Cl)cc2)Sc2scc(-c3cccc([N+](=O)[O-])c3)[n+]21 category=1.0
compound="CCCC1CCC(=C2C(=O)CCC2=O)O1 (stereo not given)" category=1.0
compound="CC(C)C1=CC23CCC4C(C)(C(=O)O)CCCC4(C)C2CC1C1C(=O)OC(=O)C13 (stereo not given)" category=1.0
compound=Cn1c2ccccc2c(=O)c2ccccc21 category=0.0
compound="CCCCCCCCCCCCCCCCCC(=O)OC(Cc1ccccc1)C(=O)O (stereo not given)" category=0.0
compound=Cc1cccc(Cc2ccccc2Cl)c1O category=0.0
compound=O=c1c(Cl)c(Cl)cnn1CCCl category=1.0
compound=CCOC(=O)/C(C#N)=C\c1ccc([N+](=O)[O-])o1 category=1.0
compound="CC(NC(=O)C(N)Cc1ccccc1)C(=O)NC1C(CO)OC(n2cnc3c(N)ncnc32)C1O (stereo not given)" category=1.0
compound=[N-]=[N+]=NC(=O)Nc1cccc(C(F)(F)F)c1 category=0.0
compound=O=c1[nH]c(SCc2c(Cl)c(Cl)c(Cl)c(Cl)c2Cl)nc(=S)[nH]1 category=0.0
compound=O=C(O)c1ccccc1C(=O)O category=0.0
compound=Nc1ncnc2c1ncn2CCCl category=0.0

###

Experiment Notes: NCI Yeast Anticancer Drug Screen. Data for the bub3 strain (AID 167)
Assay Conditions: S. cerevisiae bub3 mutant strain, at 50.0 µM (retest, dose inferred, filed as 5.0)
Compounds without any hit were thinned out: in the full panel of roughly 79,000, 15% have a hit. Activity calls are given as the source filed them. Rule as the data show it: active = growth inhibition above about 70%; inactive = the rest. Where a SMILES comes first, the peptide text is derived from it.
Classes used: active, inactive

compound=c1ccc(-c2cnc(-c3ccc(-c4ncc(-c5ccccc5)o4)cc3)o2)cc1 category=inactive
compound="Cc1cc(NS(=O)(=O)c2ccc(N=Nc3cc(N=Nc4ccc(S(=O)(=O)Nc5cc(C)nc(C)n5)cc4)c4c(NC(=O)C(Cl)Cl)cccc4c3OC(=O)C(Cl)Cl)cc2)nc(C)n1 (tested in a mixture with another compound)" category=active
compound="Cc1c(Cl)cccc1NC(=O)CC1Sc2ccccc2NC1=O (stereo not drawn)" category=active
compound=O=C(NNC(=O)c1ccccc1O)c1ccccc1O category=inactive
compound="CCOc1ccc2ccccc2c1C(Cc1ccc(Cl)cc1)NCCO (stereo not drawn)" category=inactive
compound=COC(=O)c1ccc(O)c(OC)c1 category=inactive
compound=O=C1c2cc3c(cc2CC12Cc1ccccc1C2)CCC3 category=inactive
compound="COc1cccc2c1C(=O)c1c(O)c3c(c(O)c1C2=O)C[C@@](O)(C(C)=O)C[C@@H]3OC1CC(O)C(O)C(C)O1 (stereo partly drawn)" category=active
compound="CC(C)C(NC(=O)C(N)CCC(=O)O)C(=O)O (stereo not drawn) (H-Glu-Val-OH; configuration not given here)" category=inactive
compound=COc1cc2c(cc1O)C1CN(C2)Cc2cc(OC)c(O)cc21 category=inactive
compound=CCCC1=CCCC1 category=inactive
compound=COC(=O)[C@]1(C)CCC[C@]2(C)c3cc(C(C)=O)c(C(C)C)cc3CC[C@@H]12 category=inactive
compound="Nc1ncnc2c1ncn2C1SC(CO)C(O)C1O (stereo not drawn)" category=inactive
compound=CCCCCCCCOC(=O)c1cc(O)c(O)c(O)c1 category=active
compound=S=c1nc[nH]c2[nH]ccc12 category=inactive
compound=O=C1C(=Cc2ccc(O)cc2)N=C(c2ccccc2)N1n1c(-c2ccccc2)nc2ccccc2c1=O category=inactive
compound="CCCCC(O)CC (stereo not drawn)" category=inactive
compound="CC1OC(OC2CC(O)(C(=O)CO)Cc3c(O)c4c(c(O)c32)C(=O)c2ccccc2C4=O)CC(N)C1O (stereo not drawn)" category=active
compound=COc1cccc(OCCC#N)c1 category=inactive
compound="CCOP(=O)(OCC)C(C)(CC)NC(=O)C(C(F)(F)F)C(F)(F)F (stereo not drawn)" category=inactive
compound="CC1(C)OC2C(O)C(O)C3OC(C)(C)OC3C2O1 (stereo not drawn)" category=inactive
compound="NCC(=O)OCN1C(=O)C2C3C=CC(C2C1=O)C1C2C(=O)N(COC(=O)CN)C(=O)C2C31 (stereo not drawn)" category=inactive
compound=Cn1c2nc3ccccc3c-2cc2ccccc21 category=active
